test system: LCLC-97TM1; assay: relative viability (nuclei count vs DMSO), 5 days (fraction); higher = more cells survive; conditions: first compound 2.53 µM
Lab note: compare relative viability with 0.4, writing t if less and f if equal or more.

Example results:
CCCCCCCCCCCC1=C(O)C(=O)C=C(O)C1=O [Embelin] + CS(=O)(=O)CCNCc1ccc(-c2ccc3ncnc(Nc4ccc(OCc5cccc(F)c5)c(Cl)c4)c3c2)o1 [Lapatinib] (partner 2 µM) : f
CCCCCCCCCCCC1=C(O)C(=O)C=C(O)C1=O [Embelin] + CC(=O)Nc1cccc(-n2c(=O)n(C3CC3)c(=O)c3c(Nc4ccc(I)cc4F)n(C)c(=O)c(C)c32)c1 [Trametinib] (partner 0.02 µM) : t
CCCCCCCCCCCC1=C(O)C(=O)C=C(O)C1=O [Embelin] + Nc1ncn([C@H]2C[C@H](O)[C@@H](CO)O2)c(=O)n1 [Decitabine] (partner 2 µM) : t
CCCCCCCCCCCC1=C(O)C(=O)C=C(O)C1=O [Embelin] + COc1cc2c(Oc3ccc(NC(=O)C4(C(=O)Nc5ccc(F)cc5)CC4)cc3F)ccnc2cc1OCCCN1CCOCC1 [Foretinib] (partner 0.25 µM) : f
CCCCCCCCCCCC1=C(O)C(=O)C=C(O)C1=O [Embelin] + CC(=O)c1c(C)c2cnc(Nc3ccc(N4CCNCC4)cn3)nc2n(C2CCCC2)c1=O [Palbociclib] (partner 0.5 µM) : t

stdin: Problem: For the molecule CCCCCCCCCCCC1=C(O)C(=O)C=C(O)C1=O [Embelin] + C[C@@H](Oc1cc(-c2cnn(C3CCNCC3)c2)cnc1N)c1c(Cl)ccc(F)c1Cl [Crizotinib] (partner 1 µM) , is relative viability under 0.4?
stdout: t

stdin: Problem: For the molecule CCCCCCCCCCCC1=C(O)C(=O)C=C(O)C1=O [Embelin] + NC(=O)Nc1cc(-c2cccc(F)c2)sc1C(=O)N[C@H]1CCCNC1 [AZD7762] (partner 0.2 µM) , is relative viability under 0.4?
stdout: t

stdin: Problem: For the molecule CCCCCCCCCCCC1=C(O)C(=O)C=C(O)C1=O [Embelin] + Cc1nc(Nc2ncc(C(=O)Nc3c(C)cccc3Cl)s2)cc(N2CCN(CCO)CC2)n1 [Dasatinib] (partner 0.075 µM) , is relative viability under 0.4?
stdout: f

* * *

system: RERF-LC-KJ; test: relative viability (nuclei count vs DMSO), 5 days (fraction); higher = more cells survive; details: first compound 1.265 µM
VALUE TYPE: relative viability

See these solved cases before continuing.
Clc1ccc(Nc2nnc(Cc3ccncc3)c3ccccc23)cc1 [Vatalanib] + Cc1cc(Nc2cc(N3CCN(C)CC3)nc(Sc3ccc(NC(=O)C4CC4)cc3)n2)n[nH]1 [Tozasertib] (partner 0.1 µM) : 0.454
COc1cc(N2CCC(C(N)=O)CC2)ccc1Nc1nc(N)c(Cl)c(Nc2ccccc2S(=O)(=O)C(C)C)n1 [HG-5-88-01] + N=C(N)NC(=N)NCCc1ccccc1 [Phenformin] (partner 250 µM) : 0.371
COc1cc(N2CCC(C(N)=O)CC2)ccc1Nc1nc(N)c(Cl)c(Nc2ccccc2S(=O)(=O)C(C)C)n1 [HG-5-88-01] + Cc1nc(Nc2ncc(C(=O)Nc3c(C)cccc3Cl)s2)cc(N2CCN(CCO)CC2)n1 [Dasatinib] (partner 0.075 µM) : 0.465
Clc1ccc(Nc2nnc(Cc3ccncc3)c3ccccc23)cc1 [Vatalanib] + N=C(N)NC(=N)NCCc1ccccc1 [Phenformin] (partner 250 µM) : 0.341

Pending compound:
stdin: Quick one: give measured relative viability for Clc1ccc(Nc2nnc(Cc3ccncc3)c3ccccc23)cc1 [Vatalanib] + CCNC(=O)c1noc(-c2cc(C(C)C)c(O)cc2O)c1-c1ccc(CN2CCOCC2)cc1 [Luminespib] (partner 0.01 µM)
stdout: 1.05

* * *

Catalogue of relative viability readings, one per entry.
system: NCI-H2405; experiment: relative viability (nuclei count vs DMSO), 5 days (fraction); higher = more cells survive; settings: first compound 1.265 µM
Please give the numeric answer without any surrounding text.

stdin: Quick one: give measured relative viability for COc1cc(N2CCC(C(N)=O)CC2)ccc1Nc1nc(N)c(Cl)c(Nc2ccccc2S(=O)(=O)C(C)C)n1 [HG-5-88-01] + Cc1cc(Nc2cc(N3CCN(C)CC3)nc(Sc3ccc(NC(=O)C4CC4)cc3)n2)n[nH]1 [Tozasertib] (partner 0.1 µM)
stdout: 0.395

stdin: Quick one: give measured relative viability for Clc1ccc(Nc2nnc(Cc3ccncc3)c3ccccc23)cc1 [Vatalanib] + C[C@@H](Oc1cc(-c2cnn(C3CCNCC3)c2)cnc1N)c1c(Cl)ccc(F)c1Cl [Crizotinib] (partner 1 µM)
stdout: 0.816

stdin: Quick one: give measured relative viability for COc1cc(N2CCC(C(N)=O)CC2)ccc1Nc1nc(N)c(Cl)c(Nc2ccccc2S(=O)(=O)C(C)C)n1 [HG-5-88-01] + CS(=O)(=O)N1CCN(Cc2cc3nc(-c4cccc5[nH]ncc45)nc(N4CCOCC4)c3s2)CC1 [Pictilisib] (partner 1 µM)
stdout: 0.329

stdin: Quick one: give measured relative viability for COc1cc(N2CCC(C(N)=O)CC2)ccc1Nc1nc(N)c(Cl)c(Nc2ccccc2S(=O)(=O)C(C)C)n1 [HG-5-88-01] + Nc1nc2[nH]cc(CCc3ccc(C(=O)N[C@@H](CCC(=O)O)C(=O)O)cc3)c2c(=O)[nH]1 [Pemetrexed] (partner 0.2 µM)
stdout: 0.852

stdin: Quick one: give measured relative viability for Clc1ccc(Nc2nnc(Cc3ccncc3)c3ccccc23)cc1 [Vatalanib] + Cc1nc(NC(=O)N2CCC[C@H]2C(N)=O)sc1-c1ccnc(C(C)(C)C(F)(F)F)c1 [Alpelisib] (partner 2 µM)
stdout: 0.795

stdin: Quick one: give measured relative viability for COc1cc(N2CCC(C(N)=O)CC2)ccc1Nc1nc(N)c(Cl)c(Nc2ccccc2S(=O)(=O)C(C)C)n1 [HG-5-88-01] + O=C(CCCCCCC(=O)Nc1ccccc1)NO [Vorinostat] (partner 1 µM)
stdout: 1.03

stdin: Quick one: give measured relative viability for COc1cc(N2CCC(C(N)=O)CC2)ccc1Nc1nc(N)c(Cl)c(Nc2ccccc2S(=O)(=O)C(C)C)n1 [HG-5-88-01] + CCNC(=O)c1noc(-c2cc(C(C)C)c(O)cc2O)c1-c1ccc(CN2CCOCC2)cc1 [Luminespib] (partner 0.01 µM)
stdout: 0.457

stdin: Quick one: give measured relative viability for COc1cc(N2CCC(C(N)=O)CC2)ccc1Nc1nc(N)c(Cl)c(Nc2ccccc2S(=O)(=O)C(C)C)n1 [HG-5-88-01] + O=C(c1cc(Cc2n[nH]c(=O)c3ccccc23)ccc1F)N1CCN(C(=O)C2CC2)CC1 [Olaparib] (partner 8 µM)
stdout: 0.524

stdin: Quick one: give measured relative viability for COc1cc(N2CCC(C(N)=O)CC2)ccc1Nc1nc(N)c(Cl)c(Nc2ccccc2S(=O)(=O)C(C)C)n1 [HG-5-88-01] + CC(C)C[C@H](NC(=O)[C@H](Cc1ccccc1)NC(=O)c1cnccn1)B(O)O [Bortezomib] (partner 0.002 µM)
stdout: 0.933

stdin: Quick one: give measured relative viability for COc1cc(N2CCC(C(N)=O)CC2)ccc1Nc1nc(N)c(Cl)c(Nc2ccccc2S(=O)(=O)C(C)C)n1 [HG-5-88-01] + N=C(N)NC(=N)NCCc1ccccc1 [Phenformin] (partner 250 µM)
stdout: 0.38

* * *

tested on: CAL-12T; assay: relative viability (nuclei count vs DMSO), 5 days (fraction); higher = more cells survive; details: first compound 1.265 µM
VALUE TYPE: relative viability
Please give the numeric answer without any surrounding text.

See these solved cases before continuing.
Clc1ccc(Nc2nnc(Cc3ccncc3)c3ccccc23)cc1 [Vatalanib] + CC(=O)c1c(C)c2cnc(Nc3ccc(N4CCNCC4)cn3)nc2n(C2CCCC2)c1=O [Palbociclib] (partner 0.5 µM) : 0.345
Clc1ccc(Nc2nnc(Cc3ccncc3)c3ccccc23)cc1 [Vatalanib] + NC(=O)Nc1cc(-c2cccc(F)c2)sc1C(=O)N[C@H]1CCCNC1 [AZD7762] (partner 0.2 µM) : 0.469
Clc1ccc(Nc2nnc(Cc3ccncc3)c3ccccc23)cc1 [Vatalanib] + C[C@]1(O)C[C@@H](c2nc(-c3ccc4ccc(-c5ccccc5)nc4c3)c3c(N)nccn32)C1 [Linsitinib] (partner 1 µM) : 0.755
Clc1ccc(Nc2nnc(Cc3ccncc3)c3ccccc23)cc1 [Vatalanib] + Nc1nc2[nH]cc(CCc3ccc(C(=O)N[C@@H](CCC(=O)O)C(=O)O)cc3)c2c(=O)[nH]1 [Pemetrexed] (partner 0.2 µM) : 1.12
COc1cc(N2CCC(C(N)=O)CC2)ccc1Nc1nc(N)c(Cl)c(Nc2ccccc2S(=O)(=O)C(C)C)n1 [HG-5-88-01] + COc1cc2c(Oc3ccc(NC(=O)C4(C(=O)Nc5ccc(F)cc5)CC4)cc3F)ccnc2cc1OCCCN1CCOCC1 [Foretinib] (partner 0.25 µM) : 0.963
COc1cc(N2CCC(C(N)=O)CC2)ccc1Nc1nc(N)c(Cl)c(Nc2ccccc2S(=O)(=O)C(C)C)n1 [HG-5-88-01] + Cc1nc(NC(=O)N2CCC[C@H]2C(N)=O)sc1-c1ccnc(C(C)(C)C(F)(F)F)c1 [Alpelisib] (partner 2 µM) : 1.12
COc1cc(N2CCC(C(N)=O)CC2)ccc1Nc1nc(N)c(Cl)c(Nc2ccccc2S(=O)(=O)C(C)C)n1 [HG-5-88-01] + CC(=O)c1c(C)c2cnc(Nc3ccc(N4CCNCC4)cn3)nc2n(C2CCCC2)c1=O [Palbociclib] (partner 0.5 µM) : 0.214
COc1cc(N2CCC(C(N)=O)CC2)ccc1Nc1nc(N)c(Cl)c(Nc2ccccc2S(=O)(=O)C(C)C)n1 [HG-5-88-01] + Cc1nc(Nc2ncc(C(=O)Nc3c(C)cccc3Cl)s2)cc(N2CCN(CCO)CC2)n1 [Dasatinib] (partner 0.075 µM) : 0.0794

stdin: Quick one: give measured relative viability for COc1cc(N2CCC(C(N)=O)CC2)ccc1Nc1nc(N)c(Cl)c(Nc2ccccc2S(=O)(=O)C(C)C)n1 [HG-5-88-01] + CC1(C)CCC(c2ccc(Cl)cc2)=C(CN2CCN(c3ccc(C(=O)NS(=O)(=O)c4ccc(N[C@H](CCN5CCOCC5)CSc5ccccc5)c(S(=O)(=O)C(F)(F)F)c4)cc3)CC2)C1 [Navitoclax] (partner 0.5 µM)
stdout: 1.14

stdin: Quick one: give measured relative viability for Clc1ccc(Nc2nnc(Cc3ccncc3)c3ccccc23)cc1 [Vatalanib] + Cc1cc(Nc2cc(N3CCN(C)CC3)nc(Sc3ccc(NC(=O)C4CC4)cc3)n2)n[nH]1 [Tozasertib] (partner 0.1 µM)
stdout: 0.266
